- experimental_target: hNav1.7 (Homo sapiens (Human), UniProt Q15858)
- Sequence (Q15858 other isoform, or with tags, fused parts or gaps): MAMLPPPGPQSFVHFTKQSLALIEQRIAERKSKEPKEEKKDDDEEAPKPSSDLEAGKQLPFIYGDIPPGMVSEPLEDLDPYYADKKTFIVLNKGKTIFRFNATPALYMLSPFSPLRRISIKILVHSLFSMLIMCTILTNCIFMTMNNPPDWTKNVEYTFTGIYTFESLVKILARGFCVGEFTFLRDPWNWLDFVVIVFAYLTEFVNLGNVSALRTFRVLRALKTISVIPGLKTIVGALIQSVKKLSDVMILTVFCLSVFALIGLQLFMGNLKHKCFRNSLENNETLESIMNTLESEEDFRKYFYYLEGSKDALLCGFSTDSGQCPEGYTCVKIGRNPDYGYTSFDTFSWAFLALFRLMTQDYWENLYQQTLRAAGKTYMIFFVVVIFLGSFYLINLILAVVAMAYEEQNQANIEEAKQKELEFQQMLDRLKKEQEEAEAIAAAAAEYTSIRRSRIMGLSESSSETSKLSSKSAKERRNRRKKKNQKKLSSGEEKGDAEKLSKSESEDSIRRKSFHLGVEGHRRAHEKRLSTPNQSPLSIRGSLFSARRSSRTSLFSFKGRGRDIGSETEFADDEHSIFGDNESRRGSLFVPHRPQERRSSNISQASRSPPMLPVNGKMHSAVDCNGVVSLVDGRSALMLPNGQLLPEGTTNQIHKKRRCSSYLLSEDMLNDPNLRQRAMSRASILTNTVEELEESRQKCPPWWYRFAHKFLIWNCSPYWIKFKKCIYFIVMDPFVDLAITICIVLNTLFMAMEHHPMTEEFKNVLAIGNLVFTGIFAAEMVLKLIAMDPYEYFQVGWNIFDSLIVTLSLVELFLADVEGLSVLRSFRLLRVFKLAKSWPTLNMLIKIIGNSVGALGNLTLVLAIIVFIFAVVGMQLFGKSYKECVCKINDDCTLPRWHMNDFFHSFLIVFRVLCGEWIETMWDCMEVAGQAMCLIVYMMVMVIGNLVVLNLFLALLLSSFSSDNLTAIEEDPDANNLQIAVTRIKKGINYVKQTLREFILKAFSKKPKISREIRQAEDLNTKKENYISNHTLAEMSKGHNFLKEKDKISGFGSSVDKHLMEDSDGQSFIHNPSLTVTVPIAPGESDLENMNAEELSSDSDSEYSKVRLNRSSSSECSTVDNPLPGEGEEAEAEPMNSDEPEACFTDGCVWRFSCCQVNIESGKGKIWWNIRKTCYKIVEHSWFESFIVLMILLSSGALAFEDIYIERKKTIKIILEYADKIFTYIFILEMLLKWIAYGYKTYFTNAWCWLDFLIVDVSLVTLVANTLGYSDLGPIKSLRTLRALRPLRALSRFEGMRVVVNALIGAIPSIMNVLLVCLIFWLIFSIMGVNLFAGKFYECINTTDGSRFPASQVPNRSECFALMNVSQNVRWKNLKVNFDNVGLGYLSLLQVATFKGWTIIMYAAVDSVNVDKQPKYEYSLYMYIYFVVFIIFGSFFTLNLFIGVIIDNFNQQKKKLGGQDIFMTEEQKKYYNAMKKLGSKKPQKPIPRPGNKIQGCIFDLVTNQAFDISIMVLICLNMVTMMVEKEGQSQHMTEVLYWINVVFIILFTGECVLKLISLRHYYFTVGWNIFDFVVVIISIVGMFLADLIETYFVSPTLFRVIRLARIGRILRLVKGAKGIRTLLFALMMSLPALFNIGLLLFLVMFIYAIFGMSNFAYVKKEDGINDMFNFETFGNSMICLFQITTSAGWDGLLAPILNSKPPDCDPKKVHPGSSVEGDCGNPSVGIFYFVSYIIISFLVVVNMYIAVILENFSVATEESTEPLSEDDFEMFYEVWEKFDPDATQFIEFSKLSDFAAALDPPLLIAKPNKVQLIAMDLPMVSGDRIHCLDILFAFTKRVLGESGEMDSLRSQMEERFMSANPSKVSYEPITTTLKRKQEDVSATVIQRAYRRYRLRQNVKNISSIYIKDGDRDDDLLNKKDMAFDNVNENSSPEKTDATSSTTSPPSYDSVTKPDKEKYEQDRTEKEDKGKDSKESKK
- Sequence (Q07699 19-218 partner): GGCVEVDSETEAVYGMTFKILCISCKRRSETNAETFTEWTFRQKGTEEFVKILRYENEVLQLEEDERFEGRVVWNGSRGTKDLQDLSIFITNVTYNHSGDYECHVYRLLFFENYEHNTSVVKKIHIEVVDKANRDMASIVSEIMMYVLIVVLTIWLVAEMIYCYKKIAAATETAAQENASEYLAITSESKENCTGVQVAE
- procedure_summary: Tritiated sulfonamide competitive binding to membranes from cells expressing hNav1.7 and the β1 subunit;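 also: Filter-bound radioactivity counted by liquid scintillation, nonspecific binding defined with excess unlabelled ligand, IC50 fitted to percent inhibition of specific binding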
- reported_conditions: read-out: Ligand Binding Assay; 100 pM [3H]compound, membranes with hNav1.7 and β1 subunit, 18 h, room temperature
Structures can show the parent of a compound that is named as a salt.
Each record's IC50 is compared with low interval: < 6 nM; middle interval: ≥ 6 nM and < 20 nM; high interval: ≥ 20 nM to give its class.

Recorded results for 3 compounds are shown here.
compound	assigned_class
CS(=O)(=O)NC(=O)c1cc(C2CC2)c(OCC2CCN(Cc3ccc(C(F)(F)F)cc3)CC2)cc1F	high interval
O=C(NS(=O)(=O)C1CC1)c1cc(C2CC2)c(OCC2CCN(C(c3ccc(F)cc3)c3ccc(F)cc3)CC2)cc1F [Example 363, trifluoroacetic acid salt]	low interval
CS(=O)(=O)NC(=O)c1cc(C2CC2)c(OCC2CCN([C@@H](CO)c3cc(Cl)cc(Cl)c3)CC2)cc1F	high interval

Place this compound in its band: O=C(NS(=O)(=O)N1CCC1)c1cc(C2CC2)c(O[C@@H]2CCN(Cc3ccccc3)C2)cc1F high interval

Where would C[C@H](c1cc(F)cc(C(F)(F)F)c1)N1CCC(C)(COc2cc(F)c(C(=O)NS(C)(=O)=O)cc2C2CC2)CC1 land among the classes by reported IC50? low interval
